Values from ChEMBL document CHEMBL1150874

System: Respiratory syncytial virus
METHOD: Antiviral activity against RSV long infected in human Hep2 cells assessed as virus-induced cytopathic effect after 3 days
Type: functional, organism-based
CONDITIONS USED: HEp-2, 72 h
For each entry below, report its EC50 value.

Bench note: what EC50 did C[C@@H]1O[C@@H](O[C@@H]2[C@@H](O)[C@H](OCCc3ccc(O)c(O)c3)O[C@H](CO)[C@H]2OC(=O)/C=C/c2ccc(O)c(O)c2)[C@H](O)[C@H](O)[C@H]1O [ACETOSIDE] show?
0.8 µg/mL

What value of EC50 has been reported for the following compound? NC(=O)c1ncn([C@@H]2O[C@H](CO)[C@@H](O)[C@H]2O)n1
1.8 µg/mL

What value of EC50 has been reported for the following compound? CC(=O)OC[C@H]1O[C@@H](OCCc2ccc(O)c(O)c2)[C@H](O[C@@H]2OC[C@](O)(CO)[C@@H]2O)[C@@H](O[C@@H]2O[C@@H](C)[C@H](O)[C@@H](O)[C@H]2O)[C@@H]1OC(=O)/C=C/c1ccc(O)c(O)c1 [LUTEOSIDE A]
0.87 µg/mL

Which EC50 value belongs to CC(=O)OC[C@H]1O[C@@H](OCCc2ccc(O)c(O)c2)[C@H](OC(C)=O)[C@@H](O[C@@H]2O[C@@H](C)[C@H](OC(C)=O)[C@@H](OC(C)=O)[C@H]2OC(C)=O)[C@@H]1OC(=O)/C=C/c1ccc(O)c(O)c1 ?
5.87 µg/mL

Recorded EC50 for CC(=O)O[C@@H]1[C@@H](OC(C)=O)[C@H](C)O[C@@H](O[C@@H]2[C@@H](OC(C)=O)[C@H](OCCc3ccc(O)c(O)c3)O[C@H](COC(=O)/C=C/c3ccc(O)c(O)c3)[C@H]2OC(C)=O)[C@@H]1OC(C)=O , please?
1.93 µg/mL

What value of measured EC50 is listed for COc1cc(/C=C/C(=O)OC[C@H]2O[C@@H](OCCc3ccc(O)c(O)c3)[C@H](O[C@@H]3OC[C@](O)(CO)[C@@H]3O)[C@@H](O[C@@H]3O[C@@H](C)[C@H](O)[C@@H](O)[C@H]3O)[C@@H]2O)ccc1O [LUTEOSIDE C] ?
15.5 µg/mL

Value lookup for EC50; key = C[C@@H]1O[C@@H](O[C@@H]2[C@@H](O)[C@H](OCCc3ccc(O)c(O)c3)O[C@H](COC(=O)/C=C/c3ccc(O)c(O)c3)[C@H]2O)[C@H](O)[C@H](O)[C@H]1O [ISOACTEOSIDE]
0.62 µg/mL

Which EC50 value belongs to C[C@@H]1O[C@@H](O[C@H]2[C@H](O)[C@@H](COC(=O)/C=C/c3ccc(O)c(O)c3)O[C@@H](OCCc3ccc(O)c(O)c3)[C@@H]2O[C@@H]2OC[C@](O)(CO)[C@@H]2O)[C@H](O)[C@H](O)[C@H]1O [LUTEOSIDE B] ?
3.4 µg/mL

Bench note: what EC50 did CC(=O)Oc1ccc(/C=C/C(=O)OC[C@H]2O[C@@H](OCCc3ccc(OC(C)=O)c(OC(C)=O)c3)[C@H](OC(C)=O)[C@@H](O[C@@H]3O[C@@H](C)[C@H](OC(C)=O)[C@@H](OC(C)=O)[C@H]3OC(C)=O)[C@@H]2OC(C)=O)cc1OC(C)=O [ISOVERBASCOSIDE NOAACETATE] show?
3.4 µg/mL
